Values were extracted from PubChem BioAssay (NCI).

# System: OVCAR-3 ovarian
# protocolDetails: NCI tumour cell line growth inhibition, 48 h
Each entry below carries its reported TGI.

INSERT INTO results (compound, readoutlabel, result) VALUES
  ('C/C(O[Si](C(C)C)(C(C)C)C(C)C)=C(\C)C(=O)N(C)c1ccccc1Cl', 'TGI', '> 100 µM'),
  ('[N-]=[N+]=Nc1ccc2c(c1)Sc1ccccc1N2CCCCN1CCN(C(=O)CCNC(=O)Cc2ccc(C(=O)c3ccccc3)cc2)CC1', 'TGI', '18.3 µM'),
  ('O=C(C1OC1c1cccc([N+](=O)[O-])c1)C12CC3CC(CC(C3)C1)C2 (centres undefined)', 'TGI', '12.5 µM'),
  ('COc1ccc2oc(C(=O)N3CC(CCl)c4ccc(N)cc43)cc2c1 (centres undefined)', 'TGI', '> 100 µM'),
  ('CCN(CC)c1ccc2nc3ccc(N=Nc4ccc(O)cc4)cc3[n+](-c3ccccc3)c2c1', 'TGI', '4.02 µM'),
  ('COC(=O)CCC(=O)N1CC1C (centres undefined)', 'TGI', '> 100 µM'),
  ('COc1cc2nc(-c3cccc4cccnc34)nc(NC3CCN(Cc4ccccc4)CC3)c2cc1OC', 'TGI', '3.08 µM'),
  ('CCOc1ccc(C(C)=O)cc1NC(=O)c1cccc(-c2nnn(CC)n2)c1', 'TGI', '5.89 µM'),
  ('O=C(NC(=O)c1cn(CCN2CCN(C(=O)NCCCCCCNC(=O)N3CCN(CCn4cc(C(=O)NC(=O)OCc5ccccc5)c(=O)[nH]c4=O)CC3)CC2)c(=O)[nH]c1=O)OCc1ccccc1', 'TGI', '> 100 µM'),
  ('Cc1cc(N(CCC#N)CCC#N)ccc1/C(N=Nc1ccc([N+](=O)[O-])cc1)=N\NC(=O)c1ccccc1', 'TGI', '> 100 µM');

input: Any idea what TGI was measured for Cc1ccc(C2C(Cl)C(=O)N2NC(=O)c2ccc(N)cc2)cc1 (centres undefined) ?
output: 36.7 µM

input: Same again, this time with N#C/C(=C\c1ccccc1)C(NO)Nc1ccccc1 (centres undefined)
output: > 100 µM

input: Continue with C/C(O)=C(\C=NC(=S)c1ccncc1)C(=O)Nc1ccccc1C
output: > 100 µM

input: Param item: O=c1[nH]nc(-c2ccc(F)cc2)cc1-c1ccccc1
output: > 100 µM

input: Same again, this time with NC(N)=N/N=C/c1c(-c2cc([N+](=O)[O-])c(Cl)cc2Cl)nc2n1CCS2
output: > 100 µM

input: Quick one: COc1ccc2c(c1)CCc1c(CO)c(COC(=O)NC(C)C)n(C)c1-2
output: 54.9 µM

input: Let us now turn to C=C(C)C(=O)OC1C[C@H](COC(C)=O)C2CC=C(CO)C2C2OC(=O)C(=C)[C@H]12 (some centres undefined)
output: > 100 µM

input: Record: COc1ccc(-c2nn3ncccc3c2-c2ccnc(Nc3ccc4c(c3)OCCO4)n2)cc1
output: > 25 µM

input: // repeat for C[C@H](NC(=O)c1c(C(F)F)nn(C)c1Oc1cccc(C(F)(F)F)c1)c1ccc(C(=O)O)cc1 and report
output: > 100 µM

###

Reported values of TGI for individual entries
# Tested on: OVCAR-8 ovarian
# protocolDetails: NCI tumour cell line growth inhibition, 48 h

INSERT INTO results (molecule, readoutlabel, result) VALUES
  ('O=C(NC(=O)c1cn(CCN2CCN(C(=O)NCCCCCCNC(=O)N3CCN(CCn4cc(C(=O)NC(=O)OCc5ccccc5)c(=O)[nH]c4=O)CC3)CC2)c(=O)[nH]c1=O)OCc1ccccc1', 'TGI', '> 100 µM'),
  ('CNCCCNc1c2ccccc2nc2cccc([N+](=O)[O-])c12', 'TGI', '0.0205 µM'),
  ('O=C(Oc1ccccc1)C(Br)C(Br)c1ccccc1 (centres undefined)', 'TGI', '21.8 µM'),
  ('C=CCn1c(-c2ccc(Cl)cc2)csc1=Nc1ccccc1OC', 'TGI', '> 100 µM'),
  ('NC(=S)N/N=C1/CN(c2ccc(Cl)c(Cl)c2)CC(=O)C1c1nc2ccccc2s1 (centres undefined)', 'TGI', '> 100 µM'),
  ('COc1ccc2c(c1)[n+](=O)c(C(=O)CC(=O)C(=O)Nc1cccc(C)c1C)c(C)n2[O-]', 'TGI', '> 100 µM'),
  ('C=C(C)C(=O)OC1C[C@H](COC(C)=O)C2CC=C(CO)C2C2OC(=O)C(=C)[C@H]12 (some centres undefined)', 'TGI', '> 100 µM'),
  ('NC(CSC(c1ccccc1)(c1ccccc1)c1ccc(F)cc1)C(=O)O (centres undefined)', 'TGI', '41.7 µM');

input: Recorded TGI of O=c1[nH]c(=O)n(C2CC(O)C(CO)O2)cc1COCC(F)(F)F (centres undefined) , please.
output: > 100 µM
